Listing of entries alongside the reported kon.
Target: T1, Extracellular domain of human PD1 (huPD1-ECD) (human, UniProt Q15116 25-169, biotinylated in the ligand inhibition assay (sites not given))
T1 construct: Expressed with a hexahistidine tag or as Fc fusion; also called biotinylated PD-1
T1 sequence (Q15116 25-169 limits assumed): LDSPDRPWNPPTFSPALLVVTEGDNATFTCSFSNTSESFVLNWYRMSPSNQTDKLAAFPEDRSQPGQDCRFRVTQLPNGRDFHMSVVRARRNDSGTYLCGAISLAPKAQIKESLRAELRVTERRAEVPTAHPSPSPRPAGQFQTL
Experiment: SPR ProteOn, captured mAb, huPD1-ECD analyte
Reply with just the number (in M⁻¹ s⁻¹).

1. PD1B114 (antibody, human IgG2, kappa, V domains shown, IgG2sigma/kappa; also called PD1H24/PH9L3) VH: QVQLVQSGAEVKKPGSSVKVSCKASGGTFSSYAISWVRQAPGQGLEWMGGIIPIFGTANYAQKFQGRVTITADESTSTAYMELSSLRSEDTAVYYCARPGLAAAYDTGNLDYWGQGTLVTVSS VL: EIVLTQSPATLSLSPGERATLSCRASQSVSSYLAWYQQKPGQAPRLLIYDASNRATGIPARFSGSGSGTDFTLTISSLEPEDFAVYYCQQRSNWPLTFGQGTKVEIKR; 517000

Task: kon lookup needed for PD1B164 (antibody, human IgG2, kappa, V domains shown, IgG2sigma/kappa; VH 42, VL 53; also called PD1H131/PD1L71) VH: QVQLVQSGAEVKKPGSSVKVSCKASGGTFSSYAISWVRQAPGQGLEWMGGIIPIFDTANYAQKFQGRVTITADESTSTAYMELSSLRSEDTAVYYCARPGLAAAYDTGNLDYWGQGTLVTVSS VL: EIVLTQSPATLSLSPGERATLSCRASQSVRSYLAWYQQKPGQAPRLLIYDASYRATGIPARFSGSGSGTDFTLTISSLEPEDFAVYYCQQRDYWPLTFGQGTKVEIKR , thanks.
Result: 448000

Task: Looking for the measured kon of PD1B177 (antibody, V domains shown, Tested as IgG2sigma; also called PD1H164/PH9L3) VH: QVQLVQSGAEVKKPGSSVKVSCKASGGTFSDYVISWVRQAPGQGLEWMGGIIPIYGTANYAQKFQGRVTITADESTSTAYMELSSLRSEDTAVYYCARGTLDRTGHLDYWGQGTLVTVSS VL: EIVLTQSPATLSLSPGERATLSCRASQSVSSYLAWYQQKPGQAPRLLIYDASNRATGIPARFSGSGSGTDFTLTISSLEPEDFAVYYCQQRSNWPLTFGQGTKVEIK , can you help?
Result: 515000

Task: Report kon for PD1B11 (antibody, V domains shown, Tested as IgG2sigma/kappa; also called PD1H3/PH9L3) VH: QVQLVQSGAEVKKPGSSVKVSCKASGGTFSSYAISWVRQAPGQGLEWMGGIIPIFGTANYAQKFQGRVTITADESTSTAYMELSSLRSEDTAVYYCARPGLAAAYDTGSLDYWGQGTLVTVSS VL: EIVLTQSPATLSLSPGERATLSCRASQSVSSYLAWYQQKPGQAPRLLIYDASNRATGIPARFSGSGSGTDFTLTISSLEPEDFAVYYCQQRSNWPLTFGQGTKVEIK please.
Result: 516000
